- TESTED_ON: Nuclear receptor subfamily 1 group D member 1 (Homo sapiens) (UniProt P20393)
- Sequence (P20393 whole entry, looked up): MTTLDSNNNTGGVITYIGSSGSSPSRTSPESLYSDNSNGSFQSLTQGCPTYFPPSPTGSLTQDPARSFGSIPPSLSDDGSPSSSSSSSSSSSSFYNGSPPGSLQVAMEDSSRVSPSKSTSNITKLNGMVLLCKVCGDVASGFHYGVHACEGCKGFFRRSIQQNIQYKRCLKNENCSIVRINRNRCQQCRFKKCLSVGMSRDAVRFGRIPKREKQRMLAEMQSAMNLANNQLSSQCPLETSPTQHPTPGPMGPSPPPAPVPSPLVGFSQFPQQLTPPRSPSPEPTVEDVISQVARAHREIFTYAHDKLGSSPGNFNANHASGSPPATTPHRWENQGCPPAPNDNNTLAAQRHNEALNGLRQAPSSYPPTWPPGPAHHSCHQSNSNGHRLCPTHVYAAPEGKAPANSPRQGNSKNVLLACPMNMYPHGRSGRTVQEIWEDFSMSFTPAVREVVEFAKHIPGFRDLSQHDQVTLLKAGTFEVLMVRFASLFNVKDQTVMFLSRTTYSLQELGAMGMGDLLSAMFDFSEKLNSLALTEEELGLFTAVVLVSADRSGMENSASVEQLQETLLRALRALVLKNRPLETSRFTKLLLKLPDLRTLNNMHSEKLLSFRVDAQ
- TEST_SUMMARY: modulators of Rev-erb alpha DNA binding, dose response, biochemical, FITC-DNA, fluorescence polarization (AID 1259321)
Active and inactive are the calls of the source.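 The calls were made as follows: active = half-maximal concentration for changing protein binding to DNA, from the fitted dose curve, below 10 micromolar; inactive = the rest.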
Classes used: active, inactive

[
  {
    "MOLECULE": "COc1cccc(OC)c1-c1nn2c(-c3cc(-c4ccccc4)n[nH]3)nnc2s1",
    "TESTED_ON": "Nuclear receptor subfamily 1 group D member 1 (Homo sapiens) (UniProt P20393)",
    "LABEL_CLASS": "inactive"
  },
  {
    "MOLECULE": "CCc1cc2cc(C)cc(C)c2nc1SCC(=O)N1CCCC1",
    "TESTED_ON": "Nuclear receptor subfamily 1 group D member 1 (Homo sapiens) (UniProt P20393)",
    "LABEL_CLASS": "inactive"
  },
  {
    "MOLECULE": "CC[n+]1ccc(/C=C/c2c[nH]c3ccccc23)cc1",
    "TESTED_ON": "Nuclear receptor subfamily 1 group D member 1 (Homo sapiens) (UniProt P20393)",
    "LABEL_CLASS": "inactive"
  },
  {
    "MOLECULE": "Cc1cccc2cc(C#N)c(SCC(=O)N3CCC(C)CC3)nc12",
    "TESTED_ON": "Nuclear receptor subfamily 1 group D member 1 (Homo sapiens) (UniProt P20393)",
    "LABEL_CLASS": "active"
  },
  {
    "MOLECULE": "O=C(Nc1ccc2c(c1)C(=O)NC2=O)c1cc(Cl)ccc1Cl",
    "TESTED_ON": "Nuclear receptor subfamily 1 group D member 1 (Homo sapiens) (UniProt P20393)",
    "LABEL_CLASS": "inactive"
  },
  {
    "MOLECULE": "Cn1nnnc1-c1cc(Br)ccc1NC(=O)c1ccccc1",
    "TESTED_ON": "Nuclear receptor subfamily 1 group D member 1 (Homo sapiens) (UniProt P20393)",
    "LABEL_CLASS": "inactive"
  },
  {
    "MOLECULE": "Cc1cccc2cc(C#N)c(NCCNC(=O)NC3CCCCC3)nc12",
    "TESTED_ON": "Nuclear receptor subfamily 1 group D member 1 (Homo sapiens) (UniProt P20393)",
    "LABEL_CLASS": "inactive"
  },
  {
    "MOLECULE": "COc1ccccc1C(=O)Nc1ccc2oc(-c3ccc(F)cc3)nc2c1",
    "TESTED_ON": "Nuclear receptor subfamily 1 group D member 1 (Homo sapiens) (UniProt P20393)",
    "LABEL_CLASS": "active"
  },
  {
    "MOLECULE": "COc1ccccc1C(=O)Nc1nc2ccccc2s1",
    "TESTED_ON": "Nuclear receptor subfamily 1 group D member 1 (Homo sapiens) (UniProt P20393)",
    "LABEL_CLASS": "active"
  },
  {
    "MOLECULE": "COc1ccc(-c2nnc(NC(=O)C(C)C)s2)c(OC)c1",
    "TESTED_ON": "Nuclear receptor subfamily 1 group D member 1 (Homo sapiens) (UniProt P20393)",
    "LABEL_CLASS": "inactive"
  },
  {
    "MOLECULE": "COc1ccccc1NC(=O)c1sc2nc(Cc3ccccc3)cc(C(F)(F)F)c2c1N",
    "TESTED_ON": "Nuclear receptor subfamily 1 group D member 1 (Homo sapiens) (UniProt P20393)",
    "LABEL_CLASS": "inactive"
  },
  {
    "MOLECULE": "COc1ccc2nc(SCC(=O)Nc3ccc(S(=O)(=O)N4CCCC4)cc3)c(C#N)cc2c1",
    "TESTED_ON": "Nuclear receptor subfamily 1 group D member 1 (Homo sapiens) (UniProt P20393)",
    "LABEL_CLASS": "inactive"
  },
  {
    "MOLECULE": "O=C(COC(=O)c1sc2cc(F)ccc2c1Cl)Nc1ncc(Cl)cc1Cl",
    "TESTED_ON": "Nuclear receptor subfamily 1 group D member 1 (Homo sapiens) (UniProt P20393)",
    "LABEL_CLASS": "inactive"
  },
  {
    "MOLECULE": "COc1ccccc1CC1(C)C(=O)Nc2ccc(OC(F)(F)F)cc21 (stereo not drawn)",
    "TESTED_ON": "Nuclear receptor subfamily 1 group D member 1 (Homo sapiens) (UniProt P20393)",
    "LABEL_CLASS": "inactive"
  },
  {
    "MOLECULE": "COc1ccc(C(=O)Nc2nnc(Cc3ccccc3)s2)c(OC)c1",
    "TESTED_ON": "Nuclear receptor subfamily 1 group D member 1 (Homo sapiens) (UniProt P20393)",
    "LABEL_CLASS": "inactive"
  },
  {
    "MOLECULE": "CN1C(=O)c2cc(NC(=O)Nc3ccccc3)ccc2OC[C@H]2O[C@@H](CC(=O)NC3CCC3)CC[C@@H]21",
    "TESTED_ON": "Nuclear receptor subfamily 1 group D member 1 (Homo sapiens) (UniProt P20393)",
    "LABEL_CLASS": "inactive"
  },
  {
    "MOLECULE": "CN1C(=O)/C(=C\\c2ccc(N3CCCCC3)o2)C(=O)NC1=S",
    "TESTED_ON": "Nuclear receptor subfamily 1 group D member 1 (Homo sapiens) (UniProt P20393)",
    "LABEL_CLASS": "active"
  },
  {
    "MOLECULE": "CS(=O)(=O)Nc1ccc(-c2ccc(/C=C3\\SC(N)=NC3=O)o2)cc1",
    "TESTED_ON": "Nuclear receptor subfamily 1 group D member 1 (Homo sapiens) (UniProt P20393)",
    "LABEL_CLASS": "active"
  },
  {
    "MOLECULE": "Cc1ccc(S(=O)(=O)c2c[nH]c3ccc(Cl)cc3c2=O)cc1",
    "TESTED_ON": "Nuclear receptor subfamily 1 group D member 1 (Homo sapiens) (UniProt P20393)",
    "LABEL_CLASS": "inactive"
  },
  {
    "MOLECULE": "O=C(Nc1nc(-c2cccs2)c(-c2cccs2)s1)C1CCCC1",
    "TESTED_ON": "Nuclear receptor subfamily 1 group D member 1 (Homo sapiens) (UniProt P20393)",
    "LABEL_CLASS": "active"
  },
  {
    "MOLECULE": "CC(=O)Oc1c(/C=C(\\C#N)C(N)=O)[nH]c2ccccc12",
    "TESTED_ON": "Nuclear receptor subfamily 1 group D member 1 (Homo sapiens) (UniProt P20393)",
    "LABEL_CLASS": "active"
  },
  {
    "MOLECULE": "Cc1ccc(-c2nn3c(C)nnc3s2)cc1NC(=O)c1ccc(-c2ccc(Cl)cc2Cl)o1",
    "TESTED_ON": "Nuclear receptor subfamily 1 group D member 1 (Homo sapiens) (UniProt P20393)",
    "LABEL_CLASS": "inactive"
  },
  {
    "MOLECULE": "Fc1ccc2nc(Nc3nc4c(F)cc(F)cc4s3)sc2c1",
    "TESTED_ON": "Nuclear receptor subfamily 1 group D member 1 (Homo sapiens) (UniProt P20393)",
    "LABEL_CLASS": "active"
  }
]
